# procedure-text: Visible absorption spectrum (λmax, ε)
# Type: physicochemical
# particulars: in chloroform
Consider the following compounds and their measured λ max readings.
Give the value, in units of nm, as a plain number.

CC(C)(C)Sc1c(F)c2c(c(F)c1SC(C)(C)C)C(=O)c1c(O)ccc(O)c1C2=O [(305)]: 506
CCOC(=O)c1cccc(Nc2c(F)c(F)c3c(c2F)C(=O)c2c(O)ccc(O)c2C3=O)c1 [(4)]: 527
COc1ccc(Nc2c(F)c(F)c3c(c2F)C(=O)c2c(O)ccc(O)c2C3=O)cc1 [(15)]: 542
CCCCOC(=O)c1ccccc1Nc1c(F)c2c(c(F)c1Nc1ccccc1C(=O)OCCCC)C(=O)c1c(O)ccc(O)c1C2=O [(122)]: 614
N#Cc1ccc(Nc2c(F)c3c(c(F)c2Nc2ccc(C#N)cc2)C(=O)c2c(O)ccc(O)c2C3=O)cc1 [(126)]: 605

Exam item: Recorded λ max of CCCCCCCCOc1c(F)c2c(c(F)c1Nc1ccc(C(=O)OCCCC)cc1)C(=O)c1c(O)ccc(O)c1C2=O [(36)] , please.
Marked response: 534

Exam item: For CCCCNc1c(F)c2c(c(F)c1Nc1ccc(OC)cc1)C(=O)c1c(O)ccc(O)c1C2=O [(228)] , what is its reported λ max?
Marked response: 666

Exam item: // returns reported λ max for input COc1ccccc1Nc1c(F)c2c(c(F)c1Nc1ccccc1OC)C(=O)c1c(O)ccc(O)c1C2=O [(131)]
Marked response: 661

Exam item: Find the recorded λ max belonging to COc1ccc(Sc2c(F)c3c(c(F)c2Sc2ccc(OC)cc2)C(=O)c2c(O)ccc(O)c2C3=O)cc1 [(302)] and report it.
Marked response: 504

Exam item: Find the recorded λ max belonging to O=C1c2c(O)ccc(O)c2C(=O)c2c(F)c(Sc3ccccc3)c(Sc3ccccc3)c(F)c21 [(298)] and report it.
Marked response: 489

Reference source for all entries: patent US5608091A
